tested on: SH-SY5Y; assay: Cytoprotective activity against H2O2-induced toxicity in human SH-SY5Y cells assessed as increase in cell viability at 1 uM preincubated for 24 hrs followed by H2O2 addition measured after 24 hrs by MTT assay relative to control; format: functional
property_name: Activity (%)
One number for each entry, in %.

# structure_smiles, units, Activity
data = [
    ("Cc1ccc(/[N+]([O-])=C/c2ccc3c(c2)OCO3)cc1C", "%", 71),
]

Below is a list of molecules. For each, state its recorded Activity.
1. [O-]/[N+](=C\c1ccncc1)c1ccc(Cl)cc1
2. Cc1ccc(/[N+]([O-])=C/c2ccncc2)cc1C
3. [O-]/[N+](=C\c1ccccc1)c1ccc(Cl)cc1
4. [O-]/[N+](=C\c1ccc2c(c1)OCO2)c1ccccc1
5. [O-]/[N+](=C\c1ccccc1)c1ccccc1
6. [O-]/[N+](=C\c1ccc2c(c1)OCO2)c1ccc(Cl)cc1
7. Cc1ccc(/[N+]([O-])=C/c2ccccc2)cc1C
8. [O-]/[N+](=C\c1ccncc1)c1ccccc1

1. 71
2. 71
3. 71
4. 71
5. 71
6. 71
7. 95
8. 71
